Values from patent US11786534B2

# log10 of GI50 per entry
- Target system: Ba/F3-EGFR (L858R/T790M/C797S) (Homo sapiens, UniProt P00533, T790M/C797S/L858R, cells depend on it)
- Sequence (P00533 whole entry T790M/C797S/L858R): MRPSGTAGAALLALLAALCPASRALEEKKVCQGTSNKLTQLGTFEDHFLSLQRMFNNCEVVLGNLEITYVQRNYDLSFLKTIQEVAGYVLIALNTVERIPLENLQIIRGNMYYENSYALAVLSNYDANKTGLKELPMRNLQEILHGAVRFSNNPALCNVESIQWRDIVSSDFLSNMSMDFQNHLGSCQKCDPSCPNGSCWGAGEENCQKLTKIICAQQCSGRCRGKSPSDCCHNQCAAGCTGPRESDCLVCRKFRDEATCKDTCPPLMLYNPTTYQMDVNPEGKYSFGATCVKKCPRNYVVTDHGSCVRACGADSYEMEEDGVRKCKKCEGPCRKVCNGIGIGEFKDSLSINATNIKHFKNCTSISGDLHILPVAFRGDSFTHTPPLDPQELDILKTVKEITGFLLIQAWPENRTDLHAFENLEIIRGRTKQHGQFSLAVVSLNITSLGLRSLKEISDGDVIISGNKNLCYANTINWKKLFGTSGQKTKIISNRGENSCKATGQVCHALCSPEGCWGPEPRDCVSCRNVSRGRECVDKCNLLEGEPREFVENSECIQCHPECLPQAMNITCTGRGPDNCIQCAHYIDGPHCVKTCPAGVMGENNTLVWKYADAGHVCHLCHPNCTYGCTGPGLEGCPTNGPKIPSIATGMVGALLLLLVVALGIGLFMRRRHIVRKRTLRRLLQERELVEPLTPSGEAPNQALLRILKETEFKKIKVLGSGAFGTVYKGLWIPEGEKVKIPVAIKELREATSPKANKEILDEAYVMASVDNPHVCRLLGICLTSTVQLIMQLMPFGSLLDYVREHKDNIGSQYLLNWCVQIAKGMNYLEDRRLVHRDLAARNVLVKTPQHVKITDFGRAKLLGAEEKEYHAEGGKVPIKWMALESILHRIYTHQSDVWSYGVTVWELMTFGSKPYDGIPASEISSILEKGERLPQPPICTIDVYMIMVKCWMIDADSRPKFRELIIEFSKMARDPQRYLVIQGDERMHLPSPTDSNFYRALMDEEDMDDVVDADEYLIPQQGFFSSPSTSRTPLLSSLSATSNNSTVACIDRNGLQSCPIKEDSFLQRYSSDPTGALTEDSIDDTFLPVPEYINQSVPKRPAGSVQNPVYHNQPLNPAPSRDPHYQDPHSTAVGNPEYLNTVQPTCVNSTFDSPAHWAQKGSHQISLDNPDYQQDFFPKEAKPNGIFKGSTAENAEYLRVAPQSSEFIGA
- Method: Growth inhibition of cell line expressing EGFR (L858R/T790M/C797S)
- Format: cell-based, mouse
- Study conditions: Test Example 2, Table 7; culture 3 days, CellTiter-Glo; read-out: BaF3_EGFR (L858R/T790M/C797S) IC50 value
Recorded GI50 (log10, nM)

Here's what some known entries look like.
C=CC(=O)N1CC[C@@H](n2cc(-c3cnc4ccccc4c3)c3c(N)ncnc32)C1 [Comparative Example A, reference compound] : 3.35
C#Cc1c(-c2cnc3ccccc3c2)c2c(N)ncnc2n1C12CCC(NC(=O)c3ccnnc3)(CC1)C2 [Example 3] : 2.72
C#Cc1c(-c2cnc3ccccc3c2)c2c(N)ncnc2n1C12CCC(NC(=O)c3cnc(C)cn3)(CC1)C2 [Example 37] : 2.43
C#Cc1c(-c2cnc3ccccc3c2)c2c(N)ncnc2n1C12CCC(NC(=O)c3ncco3)(CC1)C2 [Example 46] : 2.31
C#Cc1c(-c2cnc3ccccc3c2)c2c(N)ncnc2n1[C@@H]1CCN(C(=O)C=C)C1 [Comparative Example B, reference compound] : 3.56
C#Cc1c(-c2cnc3ccccc3c2)c2c(N)ncnc2n1C12CCC(NC(=O)c3ccncc3)(CC1)C2 [Example 43] : 2.62

In: // returns reported log10 of GI50 for input C#Cc1c(-c2cnc3ccccc3c2)c2c(N)ncnc2n1C12CCC(NC(=O)c3cncnc3)(CC1)C2 [Example 2]
Out: 2.27

In: Return reported log10 of GI50; argument: C#Cc1c(-c2cnc3ccccc3c2)c2c(N)ncnc2n1C12CCC(NC(=O)c3cccnc3)(CC1)C2 [Example 45]
Out: 2.48

In: Give the measured log10 of GI50 of C#Cc1c(-c2cnc3ccccc3c2)c2c(N)ncnc2n1C12CCC(NC(=O)c3cnccn3)(CC1)C2 [Example 48] .
Out: 2.35

In: // returns reported log10 of GI50 for input C#Cc1c(-c2cnc3ccccc3c2)c2c(N)ncnc2n1C12CCC(NC(=O)c3cccnn3)(CC1)C2 [Example 49]
Out: 2.46

In: Any idea what log10 of GI50 was measured for C#Cc1c(-c2cnc3ccccc3c2)c2c(N)ncnc2n1C12CCC(CNC(=O)c3ccnn3C)(CC1)C2 [Example 13] ?
Out: 2.96

In: Consider the molecule shown here: C#Cc1c(-c2cnc3ccccc3c2)c2c(N)ncnc2n1C12CCC(CNC(=O)c3cnc(C)cn3)(CC1)C2 [Example 14] What is its recorded log10 of GI50?
Out: 2.98

In: For the molecule C#Cc1c(-c2cnc3ccccc3c2)c2c(N)ncnc2n1C12CCC(NC(=O)c3ccnn3C)(CC1)C2 [Example 24] , what log10 of GI50 is on record?
Out: 2.61

* * *

- Target system: human EGFR (WT) (Homo sapiens, UniProt P00533)
- Construct: purchased Carna Biosciences Inc., Japan
- Sequence (P00533 25-1210): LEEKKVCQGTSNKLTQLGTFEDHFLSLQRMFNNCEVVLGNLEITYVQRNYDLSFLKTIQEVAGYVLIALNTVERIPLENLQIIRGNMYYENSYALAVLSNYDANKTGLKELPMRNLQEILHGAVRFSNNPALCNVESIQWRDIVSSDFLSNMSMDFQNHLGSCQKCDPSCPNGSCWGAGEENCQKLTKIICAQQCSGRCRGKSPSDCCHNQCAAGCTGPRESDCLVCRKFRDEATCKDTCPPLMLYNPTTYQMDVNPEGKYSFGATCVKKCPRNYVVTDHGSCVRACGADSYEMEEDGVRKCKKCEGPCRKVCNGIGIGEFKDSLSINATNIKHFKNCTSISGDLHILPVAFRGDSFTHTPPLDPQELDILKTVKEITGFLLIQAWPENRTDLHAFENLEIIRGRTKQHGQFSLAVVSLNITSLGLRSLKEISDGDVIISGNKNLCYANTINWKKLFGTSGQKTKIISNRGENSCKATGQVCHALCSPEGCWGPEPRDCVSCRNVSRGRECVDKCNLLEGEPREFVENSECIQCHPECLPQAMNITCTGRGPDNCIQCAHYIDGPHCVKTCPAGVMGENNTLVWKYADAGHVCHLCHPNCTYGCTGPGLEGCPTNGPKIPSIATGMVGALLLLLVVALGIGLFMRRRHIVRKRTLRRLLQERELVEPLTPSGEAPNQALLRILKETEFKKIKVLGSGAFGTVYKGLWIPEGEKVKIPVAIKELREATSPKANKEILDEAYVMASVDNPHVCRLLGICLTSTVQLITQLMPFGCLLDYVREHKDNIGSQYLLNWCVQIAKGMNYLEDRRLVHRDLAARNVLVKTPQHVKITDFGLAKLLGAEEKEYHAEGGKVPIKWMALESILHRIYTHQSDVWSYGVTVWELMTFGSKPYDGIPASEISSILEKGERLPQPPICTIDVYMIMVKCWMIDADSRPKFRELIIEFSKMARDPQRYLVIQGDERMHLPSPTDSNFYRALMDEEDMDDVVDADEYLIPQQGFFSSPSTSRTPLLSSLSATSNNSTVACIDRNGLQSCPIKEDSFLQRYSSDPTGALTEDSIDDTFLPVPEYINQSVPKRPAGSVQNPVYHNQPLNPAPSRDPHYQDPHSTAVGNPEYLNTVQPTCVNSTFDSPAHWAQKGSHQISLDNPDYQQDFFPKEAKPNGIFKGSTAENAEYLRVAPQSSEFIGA
- Method: Inhibitory activity against EGFR (WT) kinase
- Format: biochemical
- Study conditions: Test Example 1, Table 6; ATP 1.5 μM
Catalogue of compounds with associated IC50
Use nM as the unit, but write only the number.

Example entries begin here.
C#Cc1c(-c2cnc3ccccc3c2)c2c(N)ncnc2n1C12CCC(NC(=O)c3cnns3)(CC1)C2 : 1.4
C#Cc1c(-c2cnc3ccccc3c2)c2c(N)ncnc2n1C12CCC(NC(=S)NCC)(CC1)C2 : 0.88

In: Sample C#Cc1c(-c2cnc3ccccc3c2)c2c(N)ncnc2n1C12CCC(NC(=O)c3ccccc3)(CC1)C2 — what was its IC50?
Out: 2.1

In: Could you tell me which IC50 is on file for C#Cc1c(-c2cnc3ccccc3c2)c2c(N)ncnc2n1C12CCC(CNC(=O)c3ccnn3C)(CC1)C2 ?
Out: 0.61

In: # query: IC50 of entry C#Cc1c(-c2cnc3ccccc3c2)c2c(N)ncnc2n1C12CCC(NC(=O)c3cccnc3)(CC1)C2
Out: 1.9

In: Name the reported IC50 value associated with the compound C#Cc1c(-c2cnc3ccccc3c2)c2c(N)ncnc2n1C12CCC(CN(C)C)(CC1)C2
Out: 5

In: Fill blank: measured IC50 of the compound C#Cc1c(-c2cnc3ccccc3c2)c2c(N)ncnc2n1C12CCC(N3CCN(C)C(=O)C3)(CC1)C2 is ____.
Out: 4

In: Report IC50 for C#Cc1c(-c2cnc3ccccc3c2)c2c(N)ncnc2n1C12CCC(N(C)C)(CC1)C2 please.
Out: 11
